target: UniProt Q8ILY1; test: Fluorescence-based high-throughput DNA polymerase assay (molecular beacon), primary screen and dose-response; type: biochemical; details: DRC-2; 90'; concentration 5
measured quantity: % inhibition ApPOL 90' (%)
Give a bare numeral; the unit % is implied.

# query: % inhibition ApPOL 90' of entry `Cc1ccc(C)n1-c1ccc(C(=O)NNC(=O)c2ccc3nccnc3c2)cc1` 1.15

# query: % inhibition ApPOL 90' of entry `CN(C)S(=O)(=O)Oc1ccc(-c2noc(-c3ccc(Oc4cc(Cl)cc(Cl)c4)o3)n2)cc1` 12

# query: % inhibition ApPOL 90' of entry `COCCN(CCOC)Cc1c(O)ccc2c1OC(=Cc1cc(Br)ccc1OC)C2=O` -0.305

# query: % inhibition ApPOL 90' of entry `CCCCC(=O)N1CCc2c(nc3cc(-c4ccccc4Cl)[nH]n3c2=O)C1` 13

# query: % inhibition ApPOL 90' of entry `O=C1CCCC2=C1C(c1ccccn1)C1=C(CCCC1=O)O2` -14

---

Biological target: P. falciparum apicoplast DNA polymerase (Pf-apPOL) (Plasmodium falciparum, UniProt Q8ILY1)
Sequence (Q8ILY1 entry or part of it): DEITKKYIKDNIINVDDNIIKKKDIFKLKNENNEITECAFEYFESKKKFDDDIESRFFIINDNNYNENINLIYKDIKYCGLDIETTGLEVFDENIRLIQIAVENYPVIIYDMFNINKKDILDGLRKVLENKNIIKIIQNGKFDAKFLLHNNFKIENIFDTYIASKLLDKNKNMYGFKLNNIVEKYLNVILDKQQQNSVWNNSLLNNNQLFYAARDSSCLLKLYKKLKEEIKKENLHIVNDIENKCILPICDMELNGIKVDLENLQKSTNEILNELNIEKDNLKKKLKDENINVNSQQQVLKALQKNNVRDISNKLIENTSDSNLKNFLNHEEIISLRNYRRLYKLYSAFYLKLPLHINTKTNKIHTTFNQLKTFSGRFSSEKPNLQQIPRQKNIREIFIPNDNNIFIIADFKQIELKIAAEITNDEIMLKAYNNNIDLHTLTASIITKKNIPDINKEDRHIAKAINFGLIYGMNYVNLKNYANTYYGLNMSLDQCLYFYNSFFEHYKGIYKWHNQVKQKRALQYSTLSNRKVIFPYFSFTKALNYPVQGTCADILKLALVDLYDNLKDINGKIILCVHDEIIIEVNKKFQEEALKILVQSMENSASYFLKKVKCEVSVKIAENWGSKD
Assay: Fluorescence-based high-throughput DNA polymerase assay (molecular beacon), primary screen and dose-response
Assay type: biochemical
Conditions: DRC-1; 90'; conc 20
Excerpt: The HT assay employs a molecular beacon, a stem-loop DNA template with a Cy3 dye and the Black Hole Quencher on the 3′ and 5′ ends of the DNA, respectively. Pf-apPOL concentration is based on a calculated absorptivity of ε280 = 56750 M^−1 cm^−1. […] To identify apPOL inhibitors we utilised our previously developed high-throughput DNA polymerase assay. […] The assay accurately recapitulates the kinetic behaviour of apPOL, as measured through more conventional low-throughput gel-based assays. […]
measured quantity: % inhibition Apol 90'
# do not omit the unit; it follows the number

Record lookup: for P. falciparum apicoplast DNA polymerase (Pf-apPOL) (Plasmodium falciparum, UniProt Q8ILY1), what % inhibition Apol 90' belongs to `Cc1ccc(CNC(=O)c2cnn3c(O)cc(CSc4ccc(Cl)cc4)nc23)cc1` ? 85.3091%

Record lookup: for P. falciparum apicoplast DNA polymerase (Pf-apPOL) (Plasmodium falciparum, UniProt Q8ILY1), what % inhibition Apol 90' belongs to `Cc1ccc(NC(=O)Cn2ccc3c(=O)[nH]ccc32)c(C)c1` ? 36.6738%

Record lookup: for P. falciparum apicoplast DNA polymerase (Pf-apPOL) (Plasmodium falciparum, UniProt Q8ILY1), what % inhibition Apol 90' belongs to `COC(=O)c1sc(-c2ccc(C(C)(C)C)cc2)cc1NC(=O)CCC(=O)O` ? 81.7697%

Record lookup: for P. falciparum apicoplast DNA polymerase (Pf-apPOL) (Plasmodium falciparum, UniProt Q8ILY1), what % inhibition Apol 90' belongs to Cc1ccccc1NC(=O)Cn1ccc2c(=O)[nH]ccc21 [Molecule 50, O=C(Cn1ccc2c1cc[nH]c2=O)Nc1ccc(cc1)C] ? 76.8341%

Record lookup: for P. falciparum apicoplast DNA polymerase (Pf-apPOL) (Plasmodium falciparum, UniProt Q8ILY1), what % inhibition Apol 90' belongs to CCOc1nc2cccc(C(=O)OC(C)OC(=O)OC3CCCCC3)c2n1Cc1ccc(-c2ccccc2-c2nnn[nH]2)cc1 (centres unmarked) ? 89.9299%

Record lookup: for P. falciparum apicoplast DNA polymerase (Pf-apPOL) (Plasmodium falciparum, UniProt Q8ILY1), what % inhibition Apol 90' belongs to `CC(C)CCNC(=O)c1cnn2c(O)cc(CSc3ccc(Cl)cc3)nc12` ? 78.3109%

Record lookup: for P. falciparum apicoplast DNA polymerase (Pf-apPOL) (Plasmodium falciparum, UniProt Q8ILY1), what % inhibition Apol 90' belongs to COc1ccccc1C1CC(=O)Oc2cc3c(cc21)OCO3 (centres unmarked) ? 54.2638%

Record lookup: for P. falciparum apicoplast DNA polymerase (Pf-apPOL) (Plasmodium falciparum, UniProt Q8ILY1), what % inhibition Apol 90' belongs to `N#CC(C#N)=C1SCN(c2cccc(Cl)c2)CS1` ? 85.5173%

---

target: P. falciparum apicoplast DNA polymerase (Pf-apPOL) (Plasmodium falciparum); experiment: Fluorescence-based high-throughput DNA polymerase assay (molecular beacon), primary screen and dose-response; format: biochemical; details: 186 hits, value of the hit list (primary screen); unit not given; 90 min, 10 µM
For each of the compounds below, state its DNA Pol.
Number, no unit, nothing else.

# query: DNA Pol of entry `Cc1nn(CC(=O)NCCSCc2ccco2)c(C)c1Br` 72

# query: DNA Pol of entry `O=C(O)c1c(F)c(F)c(-c2c(F)c(F)c(C(=O)O)c(F)c2F)c(F)c1F` 36

# query: DNA Pol of entry `COc1ccc(C(=O)Nc2cccc(-c3nc4ncccc4o3)c2)cc1[N+](=O)[O-]` 31

# query: DNA Pol of entry `O=C(O)C(=O)Nc1nc(-c2ccc3c(c2)OCCO3)cs1` 43

---

molecular target: UniProt:Q8ILY1; test: Fluorescence-based high-throughput DNA polymerase assay (molecular beacon), primary screen and dose-response; type: biochemical; settings: DRC-2; 5'; concentration 80
For each of the compounds below, state its % inhibition Apo pol 5'.
Give a bare numeral; the unit % is implied.

Record lookup: for UniProt:Q8ILY1, what % inhibition Apo pol 5' belongs to Cc1cccc(CC(=O)N2CCc3c(nc4cc(-c5ccccc5)[nH]n4c3=O)C2)c1 [Molecule 12] ? 43

Record lookup: for UniProt:Q8ILY1, what % inhibition Apo pol 5' belongs to COc1ccc(C)cc1NC(=O)Cn1ccc2c(=O)[nH]ccc21 [Molecule 15, COc1ccc(cc1NC(=O)Cn1ccc2c1cc[nH]c2=O)C] ? 8

Record lookup: for UniProt:Q8ILY1, what % inhibition Apo pol 5' belongs to O=C(Nc1cccc(Cl)c1)Nc1nnc(-c2ccncc2)s1 [KU0022348] ? 40

Record lookup: for UniProt:Q8ILY1, what % inhibition Apo pol 5' belongs to CC(=O)c1cc2c(N)c(/C(N)=N/C#N)sc2nc1C [KU0015866] ? 37

Record lookup: for UniProt:Q8ILY1, what % inhibition Apo pol 5' belongs to CCCCCCCCCCCCCCCCCC(=O)CCN(C)C [KU0271928] ? 37

Record lookup: for UniProt:Q8ILY1, what % inhibition Apo pol 5' belongs to O=C(Cc1cccs1)N1CCN(c2nc(CN3CCOCC3)cs2)CC1 [Molecule 35] ? 35

Record lookup: for UniProt:Q8ILY1, what % inhibition Apo pol 5' belongs to C=CCOc1c(Br)cc(Br)cc1/C=C1\SC(=N)NC1=O [KU0051640] ? 54

Record lookup: for UniProt:Q8ILY1, what % inhibition Apo pol 5' belongs to O=C1N/C(=N/c2ccccc2Cl)S/C1=C/c1ccc([N+](=O)[O-])o1 [KU0054524] ? 31

Record lookup: for UniProt:Q8ILY1, what % inhibition Apo pol 5' belongs to CCCCC(=O)N1CCc2c(nc3cc(-c4ccccc4Cl)[nH]n3c2=O)C1 [Molecule 37] ? 35

---

target: P. falciparum apicoplast DNA polymerase (Pf-apPOL) (Plasmodium falciparum); assay: Fluorescence-based high-throughput DNA polymerase assay (molecular beacon), primary screen and dose-response; assay type: biochemical; conditions: DRC-1; concentration 40; 10'
For each of the molecules below, state its % inhibition Apo pol 10'.
Give a bare numeral; the unit % is implied.

# query: % inhibition Apo pol 10' of entry O=C(Nc1c2c(nn1-c1ccccc1)CSC2)c1ccco1 [KU0055213] 90.9141

# query: % inhibition Apo pol 10' of entry Cc1ccnc(NS(=O)(=O)c2ccc(-n3cccc3)cc2)n1 [KU0034899] 90.805

# query: % inhibition Apo pol 10' of entry O=C(O)c1nc(-c2ccccc2)nc2c1OCO2 [Molecule 45, OC(=O)c1nc(nc2c1OCO2)c1ccccc1] 89.2051

# query: % inhibition Apo pol 10' of entry CCc1ccccc1NC(=O)c1ccc(-c2ncccc2NC(C)=O)cc1 [KU0203112] 83.2179

# query: % inhibition Apo pol 10' of entry O=C(O)c1cc([N+](=O)[O-])c(N2CCN(c3cccc(C(F)(F)F)c3)CC2)c([N+](=O)[O-])c1 [KU0076747] 87.2694

# query: % inhibition Apo pol 10' of entry O=C(Cc1cccs1)N1CCN(c2nc(CN3CCOCC3)cs2)CC1 [Molecule 35] 83

# query: % inhibition Apo pol 10' of entry Cc1ccc(C2=N/C(=C\c3ccc(I)o3)C(=O)O2)cc1[N+](=O)[O-] [KU0073890] 86.9883

# query: % inhibition Apo pol 10' of entry COc1cc(/C=C2\C(=O)N(c3ccc(C(=O)O)cc3)N=C2C(F)(F)F)ccc1OCC(C)C [KU0069072] 88.0061

# query: % inhibition Apo pol 10' of entry CCCN1COc2ccc3c(=O)c(-c4ccccc4)coc3c2C1 [KU0199556] 57.482

# query: % inhibition Apo pol 10' of entry O=[N+]([O-])c1ccc(SCc2ccco2)c2cccnc12 [KU0034480] 89.7276

# query: % inhibition Apo pol 10' of entry CCCCCc1c2c(cc(O)c1C(=O)O)OC(=O)c1c(cc(OC)cc1C(=O)CCCC)O2 [Molecule 24] 94.8127

# query: % inhibition Apo pol 10' of entry O=C(Cn1ccc2c(=O)[nH]ccc21)Nc1ccccc1Cl [Molecule 19, O=C(Cn1ccc2c1cc[nH]c2=O)Nc1ccccc1Cl] 86.4384

# query: % inhibition Apo pol 10' of entry Oc1cccnc1/N=C/c1cc(I)cc(I)c1O [KU0073720] 88.0061

# query: % inhibition Apo pol 10' of entry CCOc1ccc2cc(C3=NN(C(=O)CCC(=O)O)C(c4ccc(C)cc4)C3)c(=O)[nH]c2c1 (stereo not drawn) [KU0056200] 80.8761

# query: % inhibition Apo pol 10' of entry O=C1c2ccccc2C(=O)c2c1oc1c3c(ccc21)OCN(C1CCCC1)C3 [KU0064306] 87.7037

The reported measurements were obtained from paper PMC9090415.
